Examples of compounds with documented EC50 follow.
# TEST SYSTEM: 5-hydroxytryptamine receptor 4 (Homo sapiens)
# Sequence (Q13639 whole entry, canonical isoform): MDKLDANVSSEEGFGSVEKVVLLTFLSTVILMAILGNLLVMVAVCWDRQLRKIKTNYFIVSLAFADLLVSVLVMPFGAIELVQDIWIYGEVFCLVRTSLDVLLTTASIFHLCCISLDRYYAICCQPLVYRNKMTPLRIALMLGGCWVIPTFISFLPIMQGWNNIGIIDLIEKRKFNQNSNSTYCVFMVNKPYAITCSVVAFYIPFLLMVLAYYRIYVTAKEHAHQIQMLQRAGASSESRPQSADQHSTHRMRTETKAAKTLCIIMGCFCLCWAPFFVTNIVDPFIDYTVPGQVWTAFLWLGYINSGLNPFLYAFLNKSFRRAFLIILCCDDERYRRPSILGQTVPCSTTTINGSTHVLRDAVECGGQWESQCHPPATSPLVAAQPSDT
# TEST DETAILS: Agonist activity at human 5HT4 isoform E receptor expressed in rat C6 cells assessed as cAMP accumulation by radio-immunoassay relative to 5HT
The reply should be a number in nM, with the unit left off.

GET /values?readout=EC50&item= COc1cc(N)c(Cl)cc1C(=O)OCCN1CCC(NC(=O)CCCNCCCc2ccc(CCCNCCCC(=O)NC3CCN(CCOC(=O)c4cc(Cl)c(N)cc4OC)CC3)cc2)CC1
9

***
Given the compound COc1cc(N)c(Cl)cc1C(=O)OCCN1CCC(NC(=O)Cc2ccccc2Cl)CC1 , what is its reported EC50?
18

So what's the measured EC50 for this one? COc1cc(N)c(Cl)cc1C(=O)OCCN1CCC(CNC(=O)CCCNS(=O)(=O)c2ccc(C)cc2)CC1
68
